What Protein binding (%) was measured for each of the following?
target: serum proteins; test: 90% serum, 30 kDa ultrafiltration, HPLC
Give your result in % as a bare value.

Challenge: Entry GFCWRVCHYRNGVRVCYRRCN [SEQ ID NO: 74] : reported Protein binding (%) = ?
Response given: 99

Challenge: Another binder to check: GFCWNVCVYRAGVRVCHRRCN [SEQ ID NO: 230]
Response given: 71

Challenge: Another binder to check: GFCWNVCVYRNGVRLCHRRCN [SEQ ID NO: 249]
Response given: 83

Challenge: Another binder to check: GFCWYVCVKRNGVRSCYRRCN [SEQ ID NO: 87]
Response given: 93

Challenge: Another binder to check: GFCWNVCVYRNGVRVCYRRCN [SEQ ID NO: 11]
Response given: 73

Challenge: Another binder to check: MFCWNVCVYRNGVRVCHRRCN [SEQ ID NO: 101]
Response given: 81

Challenge: Another binder to check: GFCWRVCVYRNGVRKCHRRCN [SEQ ID NO: 315]
Response given: 93

Challenge: Another binder to check: GFCWNVCVYRNGVRRCHRRCN [SEQ ID NO: 252]
Response given: 76

Challenge: Another binder to check: GFCWYSCVYRNGVRVCYRRCN [SEQ ID NO: 19]
Response given: 89

Challenge: Another binder to check: GFCWNVCVHRNGVRVCHRRCN [SEQ ID NO: 303]
Response given: 43

Challenge: Another binder to check: GFCWHVCARRNGARVCYRRCN [SEQ ID NO: 394]
Response given: 80

Challenge: Another binder to check: GFCWYVCHYRNGVRVCYRRCN [SEQ ID NO: 23]
Response given: 98

Challenge: Another binder to check: RFCWNVCVYRNGVRVCHRHCN [SEQ ID NO: 359]
Response given: 80

Challenge: Another binder to check: GFCWYACAKRNGLRVCYRRCN [SEQ ID NO: 450]
Response given: 98

Challenge: Another binder to check: GFCFYVCVKRNGVRVCHRRCN [SEQ ID NO: 137]
Response given: 86

Challenge: Another binder to check: GFCWNVCVYRNGVRGCHRRCN [SEQ ID NO: 246]
Response given: 79

Challenge: Another binder to check: GFCWYVCSYRNGVRVCYRRCN [SEQ ID NO: 24]
Response given: 85

Challenge: Another binder to check: GFCFYVCVYRNGVRVCRRRCN [SEQ ID NO: 56]
Response given: 94

Challenge: Another binder to check: GFCWRACVYRNGVRVCYRRCN [SEQ ID NO: 72]
Response given: 97

Challenge: Another binder to check: GFCWNVCVKRNGVRVCHRRCN [SEQ ID NO: 305]
Response given: 76

Challenge: Another binder to check: GFCWYVCVYRNGVRVCYRRCS [SEQ ID NO: 53]
Response given: 99

Challenge: Another binder to check: GFCWNVCVYRNGVRVCHRRCK [SEQ ID NO: 284]
Response given: 72

Challenge: Another binder to check: GFCWYVCVYRNGVRHCYRRCN [SEQ ID NO: 39]
Response given: 98

Challenge: Another binder to check: GFCWRVCHYRNSVRVCYRRCN [SEQ ID NO: 327]
Response given: 98

Challenge: Another binder to check: GFCWYVCAYRNGVRVCYRRCN [SEQ ID NO: 21]
Response given: 98.5

Challenge: Another binder to check: GFCWKVCVYRNGVRVCSRRCN [SEQ ID NO: 68]
Response given: 87

Sourced from patent US20150031601A1
